- study-system: T1, B3GNT2 (Homo sapiens, UniProt Q9NY97)
- T1 construct: The respective ORFs of candidate genes [CD274 (NM_014143), MCL1 (NM_021960), JUNB (NM_002229), and B3GNT2 (NM_006577)] were synthesized; expressed in transfected cells; host or cells: A375 melanoma cells (lentiviral ORF overexpression)
- T1 sequence (Q9NY97 1-397): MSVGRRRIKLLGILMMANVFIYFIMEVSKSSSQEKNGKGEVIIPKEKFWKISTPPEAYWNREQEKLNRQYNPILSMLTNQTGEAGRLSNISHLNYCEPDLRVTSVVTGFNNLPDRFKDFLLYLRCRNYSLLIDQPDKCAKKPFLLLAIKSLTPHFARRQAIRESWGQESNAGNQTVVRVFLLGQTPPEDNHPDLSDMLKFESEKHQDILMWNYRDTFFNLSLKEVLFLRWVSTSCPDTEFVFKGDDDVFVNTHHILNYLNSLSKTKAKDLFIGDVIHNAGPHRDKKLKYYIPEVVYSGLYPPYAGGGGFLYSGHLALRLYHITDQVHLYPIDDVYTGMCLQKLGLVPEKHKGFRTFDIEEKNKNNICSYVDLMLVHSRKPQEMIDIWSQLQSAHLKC
- test-name: Co-IP of FLAG-tagged B3GNT2 followed by mass spectrometry
- Assay type: cell-based
- test-context: Co-IP with IgG control antibody, N-terminally FLAG-tagged B3GNT2; mass spectrometry count, unit not given
measured-quantity: N-term IgG
I only need the number, thanks.

Please report the recorded N-term IgG for SFXN3 (protein) MGELPLDINIQEPRWDQSTFLGRARHFFTVTDPRNLLLSGAQLEASRNIVQNYRAGVVTPGITEDQLWRAKYVYDSAFHPDTGEKVVLIGRMSAQVPMNMTITGCMLTFYRKTPTVVFWQWVNQSFNAIVNYSNRSGDTPITVRQLGTAYVSATTGAVATALGLKSLTKHLPPLVGRFVPFAAVAAANCINIPLMRQRELQVGIPVADEAGQRLGYSVTAAKQGIFQVVISRICMAIPAMAIPPLIMDTLEKKDFLKRRPWLGAPLQVGLVGFCLVFATPLCCALFPQKSSIHISNLEPELRAQIHEQNPSVEVVYYNKGL .
0

# credit: patent US20240261333A1
